System: AD-BEN^R (Ben^Rp)
Assay: Disk diffusion assay, AD-BEN^R
Assay type: cell-based, S. cerevisiae
Details: AD-pABC as negative control, 30° C., 48 h
METRIC_NAME: resistance/sensitivity in disk diffusion assay

MOLECULE	TARGET_DESC	RESULT
OC(Cn1cncn1)(Cn1cncn1)c1ccc(F)cc1F [fluconazole]	AD-BEN^R (Ben^Rp)	resistant
C[C@@H]1C[C@@H]([C@H](O)CC2CC(=O)NC(=O)C2)C(=O)[C@@H](C)C1 [cycloheximide]	AD-BEN^R (Ben^Rp)	resistant
C/C=C/C/C=C/CCC(=O)[C@H]1O[C@H]1C(N)=O [cerulenin]	AD-BEN^R (Ben^Rp)	resistant
